Test system: Capan-2 pancreatic cancer cells
Experiment: WST-1 proliferation assay, Capan-2
Assay type: cell-based, human
Settings: Homo sapiens, Capan-2, 72 h, Capan-2; 72 hours, 1% FCS; read-out: IC50, single agent
measured metric: IC50

Field IC50 (system: Capan-2 pancreatic cancer cells) for entry Nc1ccn([C@@H]2O[C@H](CO)[C@@H](O)C2(F)F)c(=O)n1 [Gemcitabine] = 2 to 20 µM

====

Test system: Mia Paca-2 pancreatic cancer cells
Test: WST-1 proliferation assay, Mia Paca-2
Assay type: cell-based, human
Details: Homo sapiens; Mia Paca-2; 72 hours, 1% FCS; read-out: IC50, single agent
Reported values of IC50 for individual entries

Cc1ccc(NC(=O)c2ccc(CN3CCN(C)CC3)cc2)cc1Nc1nc(-c2cccnc2)cs1; 5 to 10 µM

Let us examine a further case.
Looking up Nc1ccn([C@@H]2O[C@H](CO)[C@@H](O)C2(F)F)c(=O)n1 , I see its IC50 listed as > 10 µM

====

Tested on: DU145 prostate cancer cells
Experiment: WST-1 proliferation/survival assay, DU145
Type: cell-based
Conditions: Homo sapiens, DU-145, read-out: Gemcitabine IC50
measured metric: IC50 (µM)
Number only, in µM; omit the unit.

Nc1ccn([C@@H]2O[C@H](CO)[C@@H](O)C2(F)F)c(=O)n1 [Gemcitabine] on DU145 prostate cancer cells gives IC50 = 100

====

Test system: Panc-1 pancreatic cancer cells
Test: WST-1 proliferation assay, Panc-1
Format: cell-based, human
Conditions: Homo sapiens, PANC-1, read-out: IC50 of gemcitabine plus 5 μM masitinib
measured metric: pIC50
Kindly note that pIC50 refers to -log10 of the concentration in mol/L and answer with the value alone.

Please fill in: pIC50 reported for Nc1ccn([C@@H]2O[C@H](CO)[C@@H](O)C2(F)F)c(=O)n1 [Gemcitabine] = 5.10

====

Test system: canine cancer cell lines other than C2
Experiment: cells
Settings: Canis lupus familiaris, read-out: IC50 masitinib single agent
measured metric: IC50

Recorded IC50 (molecule Cc1ccc(NC(=O)c2ccc(CN3CCN(C)CC3)cc2)cc1Nc1nc(-c2cccnc2)cs1 ): 5 to 20 µM

====

Tested on: Mia Paca-2 pancreatic cancer cells
Assay: WST-1 proliferation assay, Mia Paca-2
Format: cell-based, human
Details: Homo sapiens, MIA PaCa-2, read-out: IC50 of gemcitabine plus 10 μM masitinib
measured metric: pIC50
// field semantics: pIC50 = negative decimal log of concentration (mol/L)

For Nc1ccn([C@@H]2O[C@H](CO)[C@@H](O)C2(F)F)c(=O)n1 the compound record lists pIC50 as 7.60
